assay remarks: amyloid nucleation score (Sup35N fusion, yeast selection) (log enrichment); library NNK1; higher = more nucleation; inactive = no reads after selection;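 further: zero at mode of non-aggregating sequences after 7 days selection at 30°C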
property name: amyloid nucleation score

[[record]]
substance = "TTLNEELYSLVVSRDWGDSN"
recorded_result = "inactive"

[[record]]
substance = "MFDTRDRMAALTFVKRMWCK"
recorded_result = "inactive"

[[record]]
substance = "RFLVFC"
recorded_result = "inactive"


###

assay remarks: amyloid nucleation score (Sup35N fusion, yeast selection) (log enrichment); library NNK2; higher = more nucleation; inactive = no reads after selection
property name: amyloid nucleation score

[[record]]
biopolymer_sequence = "WVCLYDVVICRIRLSDRENS"
recorded_result = 0.713

[[record]]
biopolymer_sequence = "PIFNMSTPNFLSSPESRLLV"
recorded_result = "inactive"

[[record]]
biopolymer_sequence = "SPSLVTNFVENGFFGVDLLS"
recorded_result = "inactive"

[[record]]
biopolymer_sequence = "YERMWCHLLVLRPNKQK"
recorded_result = 0.697

[[record]]
biopolymer_sequence = "QLFMNPDWNKRHYNELYSSG"
recorded_result = "inactive"

[[record]]
biopolymer_sequence = "NSAPRGQCRSVFGLMYSYSI"
recorded_result = "inactive"

